The values you see were collected from patent US20110053773A1.

System: basil 'Genovese'
experimental.protocol: Content analysis of basil: protein, minerals (Example 4, Tables 10-11)
Format: in vivo
experimental.setup: 28 DA-A, rates g ai/ha: chlropyrifos 1120, chlorothalonil 2630, paclobutrazol 3.23, mepiquat-chloride 12.3, Isoxadifen 8, Napthalic anhydride 264, + NIS 0.25 % v/v
Sodium, Percent Increase Over the Untreated Check (on a % dry matter basis) listing for selected compounds.
observation.type: Sodium, Percent Increase Over the Untreated Check (on a % dry matter basis)

compound	tested.on	result.value
CC(C)(C)[C@@H](O)[C@@H](Cc1ccc(Cl)cc1)n1cncn1 (racemic)	basil 'Genovese'	−25 % check
CCOP(=S)(OCC)Oc1nc(Cl)c(Cl)cc1Cl	basil 'Genovese'	83 % check
C[N+]1(C)CCCCC1 [mepiquat-chloride]	basil 'Genovese'	−8 % check
CCOC(=O)C1=NOC(c2ccccc2)(c2ccccc2)C1	basil 'Genovese'	27 % check
N#Cc1c(Cl)c(Cl)c(Cl)c(C#N)c1Cl	basil 'Genovese'	8 % check
O=C1OC(=O)c2cccc3cccc1c23 [napthalic anhydride]	basil 'Genovese'	33 % check
